- Measurement Notes: Metabolic stability in human liver microsomes assessed as intrinsic clearance at 1 uM
- Assay type: ADME, Microsome
Parameter: intrinsic clearance (µL/min/mg)

- O=C(Nc1ccc2[nH]ncc2n1)[C@H]1C[C@@H](F)CN1C(=O)C1(c2ccc(O)cc2)CCCCC1: 140

(A) COc1ccc(C2(C(=O)N3C[C@H](F)C[C@@H]3C(=O)Nc3ccc4[nH]ncc4n3)CCCCC2)cc1
(B) O=C(Nc1ccc2[nH]ncc2n1)[C@H]1C[C@@H](F)CN1C(=O)C1(c2ccc(C(=O)C(F)(F)F)cc2)CCCCC1
(C) COc1ccc(C2(C(=O)N3C[C@H](F)C[C@@H]3C(=O)Nc3ccc4[nH]ncc4n3)CC(C)(C)C2)cc1
QUERY: List by increasing intrinsic clearance. # respond with the labels, arranged in the requested order
RESULT: C, B, A
(C: 100 µL/min/mg, B: 150 µL/min/mg, A: 310 µL/min/mg)
